# credit: ChEMBL document CHEMBL1157539

- System: Plasmodium falciparum
- procedureDetails: GSK_TCMDC: Inhibition of Plasmodium falciparum Dd2 in whole red blood cells, using parasite LDH activity as an index of growth. Test compounds present at 2uM
- Type: functional
Classification field: enter MET for Inhibition values not below 90%, NOT MET for values below it.

*Q* Exam item: decide whether the reported Inhibition for Nc1nc(N)c2c(Cl)c(N3CCOCC3)ccc2n1 is at least 90%.
*A* NOT MET

====

- System: Plasmodium falciparum
- procedureDetails: GSK_TCMDC: Inhibition of Plasmodium falciparum Dd2 in whole red blood cells, using parasite LDH activity as an index of growth. Test compounds present at 2uM
- Type: functional
Please map values of Inhibition to classes as shown: class 0 = under 50%, class 1 = from 50% up to 90%, class 2 = 90% and over

*Q* # bin label for COc1ccc2nccc([C@@H](O)CN3CCC(NCc4cc5c(cc4F)SCC(=O)N5)CC3)c2n1
*A* class 0

*Q* # bin label for Oc1ccc(Cl)c2c1C(c1ccccc1)=NCC2
*A* class 0

*Q* # bin label for CC(C)CNCc1ccc(-c2cccc(-c3nc4ccccc4[nH]3)c2)cc1.O=C(O)C(F)(F)F
*A* class 2

---
*Q* # bin label for CCOC(=O)C(C(=O)OCC)c1nc(C)ns1
*A* class 0

*Q* # bin label for COc1cc2c(cc1OC)C(C)(C)CN1Cc3c(c(CO)c(OC)c(OC)c3OC)CC21.Cl (stereo not given)
*A* class 0

*Q* # bin label for CCOc1ccc(C2CCN(CCCCNC(=O)c3ccc(NC(=O)c4ccc(Cl)cc4)cc3)CC2)c(CC)c1
*A* class 1

====

- System: Plasmodium falciparum
- procedureDetails: GSK_TCMDC: Inhibition of Plasmodium falciparum Dd2 in whole red blood cells, using parasite LDH activity as an index of growth. Test compounds present at 2uM
- Type: functional
Each entry below carries its recorded Inhibition.
Returns: string containing the numeric result and its unit.

Check out these entries, answers already filled in.
*Q* Looking for the measured Inhibition of Cc1ccc(-c2csc(C)n2)c(C)c1 , can you help?
*A* 0%

*Q* Looking for the measured Inhibition of Cc1cccc(OC(C)C(=O)Nc2cc(C(F)(F)F)ccc2N2CCOCC2)c1 (stereo not given) , can you help?
*A* 98%

*Q* Looking for the measured Inhibition of CCOc1ccc(C(=O)Nc2cc(Br)c3c(c2)CNCC3)cc1Cl.Cl , can you help?
*A* 8%

*Q* Looking for the measured Inhibition of CS(=O)(=O)O.c1ccc2c(CNCCCCCCNCc3c(OCC4CC4)ccc4ccccc34)c(OCC3CC3)ccc2c1 , can you help?
*A* 97%

---
*Q* Looking for the measured Inhibition of CN(C)C(=S)N/N=C1/C(=O)Nc2ccccc21 , can you help?
*A* 96%

*Q* Looking for the measured Inhibition of COc1cncc(/C=C/c2cncc(C(=O)NCCc3ccc(Cl)cc3Cl)c2)c1 , can you help?
*A* 49%

*Q* Looking for the measured Inhibition of Cc1ccc(NC(=S)N2CCCN(CCCCCNC(=O)/C=C/c3ccc(Cl)c(Cl)c3)CC2)cc1Cl , can you help?
*A* 5%

*Q* Looking for the measured Inhibition of O=C(O)/C=C\C(=O)O.c1ccc(COc2ccnc(NCCCOc3cccc(CN4CCCCC4)c3)c2)cc1 , can you help?
*A* 51%

*Q* Looking for the measured Inhibition of Fc1ccc2[nH]c(-c3ccc(-c4ccc(CN5CCN(CCN6CCOCC6)CC5)cc4)s3)nc2c1.O=C(O)C(F)(F)F , can you help?
*A* 98%

*Q* Looking for the measured Inhibition of Nc1ccnc(N2CCC(CCOc3cc(C(F)(F)F)nc4c(C(F)(F)F)cccc34)CC2)c1 , can you help?
*A* 17%

====

Each entry below carries its recorded Inhibition.
- System: HepG2
- procedureDetails: GSK_TCMDC: Percent inhibition of human HepG2 cell line. Test compounds present at 10uM.
- Format: functional
All answers are understood in %, so give the number only.

Check out these entries, answers already filled in.
*Q* Looking for the measured Inhibition of Cn1cncc1C(=O)Nc1cccc(-c2cccc(-c3nc4ccccc4[nH]3)c2)c1 , can you help?
*A* 9

*Q* Looking for the measured Inhibition of COc1cccc(CNC(=O)c2cccc(-c3cccc(CN4CCC(N5CCCC5)CC4)c3)n2)c1.O=C(O)C(F)(F)F , can you help?
*A* 22

*Q* Looking for the measured Inhibition of O=C(CCc1cccc(O)c1)NCC(NCCCNc1cc(=O)c2ccccc2[nH]1)c1cc(Br)cc(Br)c1 (stereo not drawn) , can you help?
*A* 0

*Q* Looking for the measured Inhibition of COc1ccc(-c2cccc(NC(=O)c3ccc(Cl)cc3)c2)cc1CN1CCCN(C)CC1.O=C(O)C(F)(F)F , can you help?
*A* 29

*Q* Looking for the measured Inhibition of CC[C@]1(C)C[C@@H](NC(=O)NC(=O)c2ccc(OC)cc2)[C@]2(C)[C@H](C)CC[C@]3(CCC(=O)[C@H]32)[C@@H](C)[C@@H]1OC(=O)NC(=O)c1ccc(OC)cc1 , can you help?
*A* 10

---
*Q* Looking for the measured Inhibition of CCOCCCn1c(=N)c(C(=O)NCc2ccc(F)cc2)cc2c(=O)n3cccc(C)c3nc21 , can you help?
*A* 21

*Q* Looking for the measured Inhibition of COc1ccc(-c2ccccc2CNC2Cc3ccccc3C2)cc1S(=O)(=O)NCCN1CCCC1.O=C(O)C(F)(F)F , can you help?
*A* 18

*Q* Looking for the measured Inhibition of O=C(Nc1ccc2c(c1)CCC2)c1ccc(CN2CCCN(Cc3cccc(O)c3)CC2)cc1.O=C(O)C(F)(F)F , can you help?
*A* 45

====

- Tested on: Plasmodium falciparum
- procedureDetails: GSK_TCMDC: Inhibition of Plasmodium falciparum Dd2 in whole red blood cells, using parasite LDH activity as an index of growth. Test compounds present at 2uM
- Type: functional
# y = Inhibition below 90% (exclusive); n = Inhibition at/above 90%

These recorded examples may help you get a feel for the data.
*Q* Criterion: Inhibition strictly below 90%. Is it met by Cc1nnsc1C(=O)Nc1ccc(-c2cccc(-c3nc4cc(C(F)(F)F)ccc4[nH]3)c2)cc1 ?
*A* y

*Q* Criterion: Inhibition strictly below 90%. Is it met by COCCN1CCN(Cc2ccc(-c3ccc(-c4nc5cc(F)ccc5[nH]4)cc3)cc2)CC1.O=C(O)C(F)(F)F ?
*A* n

*Q* Criterion: Inhibition strictly below 90%. Is it met by COc1cccc(CNC[C@@H](O)[C@H](Cc2ccccc2)NC(=O)c2cc(C3CCCC3)cc(N3CCCCS3(=O)=O)c2)c1.Cl ?
*A* y

As a next step, examine the compound that follows.
*Q* Criterion: Inhibition strictly below 90%. Is it met by CC(O)C1CCCCN1C(=O)c1cccc(-c2cccc(-c3nc4cc(C(F)(F)F)ccc4[nH]3)c2)c1 (centres undefined) ?
*A* n

====

- Test system: HepG2
- procedureDetails: GSK_TCMDC: Percent inhibition of human HepG2 cell line. Test compounds present at 10uM.
- Type: functional
Please map values of Inhibition to classes as shown: L (below 6%), M (6% to below 20%), H (20% or more)

*Q* # bin label for Cc1cc(N[C@@H](CC(C)C)C(=O)Nc2ccccc2)nc(NCc2ccccc2C)n1.O=C(O)C(F)(F)F
*A* H

---
*Q* # bin label for CCCC(CNC(=O)c1cc2c(Cl)cc(Cl)cc2[nH]1)CNc1cc(=O)c2ccccc2[nH]1.O=C(O)C(F)(F)F (stereo not drawn)
*A* M

*Q* # bin label for Cl.N=c1c2c(n(Cc3cccc(Cl)c3)c3c1CCC3)CCCC2
*A* L

====

- Test system: Plasmodium falciparum
- procedureDetails: GSK_TCMDC: Inhibition of Plasmodium falciparum 3D7 in whole red blood cells, using parasite LDH activity as an index of growth. Test compounds present at 2uM
- Format: functional
Each entry below carries its recorded Inhibition.
All answers are understood in %, so give the number only.

*Q* Looking for the measured Inhibition of CC(C)(C)c1nn(-c2ccccc2)c2[nH]c(=O)c(CNC3CCCCC3)cc12 , can you help?
*A* 83

---
*Q* Looking for the measured Inhibition of Cc1cc(C)cc(Oc2c(C(F)(F)F)oc3c(CN4CC(C)OC(C)C4)c(O)ccc3c2=O)c1 (centres undefined) , can you help?
*A* 89

====

- Test system: Plasmodium falciparum
- procedureDetails: GSK_TCMDC: Inhibition of Plasmodium falciparum Dd2 in whole red blood cells, using parasite LDH activity as an index of growth. Test compounds present at 2uM
- Format: functional
recordedMetric: Inhibition (%)
All answers are understood in %, so give the number only.

*Q* Looking for the measured Inhibition of COc1ccc(CCN(C)CCCOc2ccc(NC(=O)COc3cccc4sc5ccccc5c(=O)c34)cc2)cc1OC , can you help?
*A* 90

*Q* Looking for the measured Inhibition of COc1ccc2nccc([C@@H](O)CN3CCC(NC(=O)C(c4cc5ccccc5s4)N4CCN(c5ccccc5OC)CC4)CC3)c2c1 (stereo partly specified) , can you help?
*A* 88

---
*Q* Looking for the measured Inhibition of O=C(/C=C/c1ccc(I)cc1)NCCCCCN1CCC(c2c[nH]c3ccc(O)cc23)CC1 , can you help?
*A* 1

*Q* Looking for the measured Inhibition of O=C(/C=C/c1ccc(Cl)c(Cl)c1)NCCCCCN1CCCC(C(=O)Nc2ccc(Cl)cc2)C1 (stereo unspecified) , can you help?
*A* 0

*Q* Looking for the measured Inhibition of O=C(Nc1cc(F)cc(F)c1)N[C@H]1CCN(CCCCCNC(=O)C2CC2c2ccc(Cl)c(Cl)c2)C1 (stereo partly specified) , can you help?
*A* 0

*Q* Looking for the measured Inhibition of Cc1cccc2nc(-c3cccc(-c4cccc(NC(=O)NC5CC5c5ccccc5)c4)c3)[nH]c12 (stereo unspecified) , can you help?
*A* 28

*Q* Looking for the measured Inhibition of COc1ccccc1NC(=S)N/N=C/c1ccc(O)cc1O , can you help?
*A* 80

*Q* Looking for the measured Inhibition of COc1cc(CNc2ncc(-c3ccsc3)c(-c3nccs3)n2)cc(OC)c1 , can you help?
*A* 82
